The reported numbers originate from ChEMBL document CHEMBL1201862.

System: SF-295
Assay: NCI tumour cell line growth inhibition, 48 h
The source made the active and inactive calls. Cut-off read from the data, not from the text of the source: active = GI50 up to about 1.1 µM and inactive = higher.
The reader will find reported GI50 values listed item by item below.

>>> print(df.to_string())
                                   compound     reported_result
0             Cc1nc2ccccc2n1CCc1nc2ccccc2s1  8.49 µM (inactive)
1  CN(C)CCOC1(Cc2ccc(Cl)cc2Cl)CCC(C(C)(C)C)CC1 (centres undefined)  2.09 µM (inactive)

Incoming: State the recorded GI50 for this entry: "c1ccc2cc(-c3cc4ccccc4s3)ccc2c1"
Outgoing: > 100 µM (inactive)

Incoming: And the next one, "CCC(=O)c1cn(C)c(=O)c2ccccc12" ?
Outgoing: > 100 µM (inactive)

---

Test system: IGROV-1
Test: NCI tumour cell line growth inhibition, 48 h
Calls of active or inactive are those of the source. No stated cut-off is given here; in the data, active = GI50 up to about 1.1 µM and inactive = higher.
GI50: recorded values

Reference set, count: 3
In [3]: df
Out[3]:
                                   molecule  value_type      reported_result
0  COc1cc2cc(C(=O)N3CC(CCl)c4ccc([N+](C)(C)Cc5ccc([N+](=O)[O-])cc5)cc43)[nH]c2c(OC)c1OC (centres undefined)        GI50   1.97 µM (inactive)
1  COc1ccc2c(c1)c1c(n2CCN2CCCCC2)-c2cccc(OC)c2CC1        GI50   13.4 µM (inactive)
2  COc1ccc(C[C@H](N)C(=O)N2C[C@@H](CO)C[C@@H](n3cnc4c(N(C)C)ncnc43)C2)cc1        GI50  > 100 µM (inactive)

Incoming: Requested field: GI50. Item: "O=c1[nH]nc(Cc2ccccc2)n1N=C1CCCCC1"
Outgoing: > 100 µM (inactive)

Incoming: "CC(=O)CC(=O)CCCC(=O)Nc1ccc(Cl)cc1C" ?
Outgoing: > 100 µM (inactive)

Incoming: Similarly, CC(C)N(C(=O)C12C3C4C5(C#N)C3C1(I)C5C42I)C(C)C (centres undefined) ?
Outgoing: > 100 µM (inactive)

Incoming: # repeat for Cc1ccc2c(c1)nc1n2C(c2c(F)cccc2F)SC1 (centres undefined)
Outgoing: 50.6 µM (inactive)

Incoming: Another molecule to look at: "CCn1c(O)c(C(=O)Nc2cccs2)c(=O)n(CC)c1=S"
Outgoing: 20.5 µM (inactive)

Incoming: Follow-up item: COc1cc(S(=O)(=O)Nc2nc(-c3ccc(N4C(=O)C(CC(=O)O)SC4c4ccccc4O)cc3)cs2)ccc1Cl (centres undefined)
Outgoing: 34.9 µM (inactive)

---

Reported GI50 is given for each of the following molecules.
System: HOP-62
Experiment: NCI tumour cell line growth inhibition, 48 h
Activity calls are given as the source filed them. No stated cut-off is given here; in the data, active = GI50 up to about 1.1 µM and inactive = higher.

>>> df
                                   molecule  value_type      reported_result
0  Oc1cc(O)c2c(c1)OC(c1ccc(O)c(O)c1)C(OC1(c3cc(O)c(O)c(O)c3)Oc3cc(O)cc(O)c3C(O)C1O)C2 (centres undefined)        GI50     24 µM (inactive)
1  COc1ccccc1N/C(SCc1ccccc1)=C(/C(Cl)=C(Cl)Cl)[N+](=O)[O-]        GI50   28.6 µM (inactive)
2                            C1CNCCNCCNCCN1        GI50  > 100 µM (inactive)
3  COc1ccc(CNc2nc(NCc3ccc(OC)cc3)nc(NC(C)C)n2)cc1        GI50   6.56 µM (inactive)
4  CN(C)C(=O)/N=C1\SC(=N\c2ccccc2)/C(=N/c2ccccc2)N1c1ccc([N+](=O)[O-])cc1        GI50   61.9 µM (inactive)
5  CC(=O)[C@@]1(O)CC[C@H]2[C@@H]3C[C@H](C)C4=CC(=O)C=C[C@]4(C)[C@@]3(F)[C@@H](O)C[C@@]21C        GI50  > 100 µM (inactive)

Incoming: Observed GI50 on HOP-62 for CC(=O)NC(CS/N=N/c1[nH]cnc1C(N)=O)C(=O)O (centres undefined) , please.
Outgoing: 35.9 µM (inactive)

Incoming: Item: "CCOC(=O)c1cc2c(OC(C)=O)ccc(OC(C)=O)c2s1"
Outgoing: 10.3 µM (inactive)

Incoming: Moving on to the next molecule: "COCOc1cc(OC)ccc1C/C=N/O"
Outgoing: > 100 µM (inactive)

Incoming: Next molecule up: "Cc1ccc(C[P+]2(c3ccccc3)CCCCC2)cc1.[O-][Cl+3]([O-])([O-])[O-]"
Outgoing: 99.8 µM (inactive)

Incoming: What do you have for "O=C(C=P(c1ccccc1)(c1ccccc1)c1ccccc1)C12CC3CC(CC(C3)C1)C2" ?
Outgoing: 17.2 µM (inactive)

Incoming: And the next one, Nc1ncnc2c1nnn2C1OC(CO)C(O)C1O (centres undefined) ?
Outgoing: 6.05 µM (inactive)
